Here, each record is paired with measured relative viability data.
- Tested on: CAL-12T
- assay_procedure: relative viability (nuclei count vs DMSO), 5 days (fraction); higher = more cells survive
- experimental_parameters: first compound 0.5 µM
Field format: numeric only.

>>> test_value("CC1(C)CCC(c2ccc(Cl)cc2)=C(CN2CCN(c3ccc(C(=O)NS(=O)(=O)c4ccc(N[C@H](CCN5CCOCC5)CSc5ccccc5)c(S(=O)(=O)C(F)(F)F)c4)cc3)CC2)C1 [Navitoclax] + Cc1cc(Nc2cc(N3CCN(C)CC3)nc(Sc3ccc(NC(=O)C4CC4)cc3)n2)n[nH]1 [Tozasertib] (partner 0.1 µM)")
0.308

Look up relative viability: CC1(C)CCC(c2ccc(Cl)cc2)=C(CN2CCN(c3ccc(C(=O)NS(=O)(=O)c4ccc(N[C@H](CCN5CCOCC5)CSc5ccccc5)c(S(=O)(=O)C(F)(F)F)c4)cc3)CC2)C1 [Navitoclax] + CCNC(=O)c1noc(-c2cc(C(C)C)c(O)cc2O)c1-c1ccc(CN2CCOCC2)cc1 [Luminespib] (partner 0.01 µM)
0.251

###

- System: NCI-H2085
- assay_procedure: relative viability (nuclei count vs DMSO), 5 days (fraction); higher = more cells survive
- experimental_parameters: first compound 1 µM
# relative viability values compiled below

What is its relative viability for NCI-H2085? Entry: NC(=O)Nc1cc(-c2cccc(F)c2)sc1C(=O)N[C@H]1CCCNC1 [AZD7762] + Nc1ncn([C@H]2C[C@H](O)[C@@H](CO)O2)c(=O)n1 [Decitabine] (partner 2 µM)
0.702

Same question, NC(=O)Nc1cc(-c2cccc(F)c2)sc1C(=O)N[C@H]1CCCNC1 [AZD7762] + Nc1nc2[nH]cc(CCc3ccc(C(=O)N[C@@H](CCC(=O)O)C(=O)O)cc3)c2c(=O)[nH]1 [Pemetrexed] (partner 0.2 µM) this time
0.673

Param item: NC(=O)Nc1cc(-c2cccc(F)c2)sc1C(=O)N[C@H]1CCCNC1 [AZD7762] + CCNC(=O)c1noc(-c2cc(C(C)C)c(O)cc2O)c1-c1ccc(CN2CCOCC2)cc1 [Luminespib] (partner 0.01 µM)
0.374

// next record NC(=O)Nc1cc(-c2cccc(F)c2)sc1C(=O)N[C@H]1CCCNC1 [AZD7762] + CC(=O)c1c(C)c2cnc(Nc3ccc(N4CCNCC4)cn3)nc2n(C2CCCC2)c1=O [Palbociclib] (partner 0.5 µM)
0.544

And what about the molecule NC(=O)Nc1cc(-c2cccc(F)c2)sc1C(=O)N[C@H]1CCCNC1 [AZD7762] + Cc1nc(NC(=O)N2CCC[C@H]2C(N)=O)sc1-c1ccnc(C(C)(C)C(F)(F)F)c1 [Alpelisib] (partner 2 µM) ?
0.782

What about this molecule? NC(=O)Nc1cc(-c2cccc(F)c2)sc1C(=O)N[C@H]1CCCNC1 [AZD7762] + Cc1nc(Nc2ncc(C(=O)Nc3c(C)cccc3Cl)s2)cc(N2CCN(CCO)CC2)n1 [Dasatinib] (partner 0.075 µM)
0.216

Param item: NC(=O)Nc1cc(-c2cccc(F)c2)sc1C(=O)N[C@H]1CCCNC1 [AZD7762] + C[C@]1(O)C[C@@H](c2nc(-c3ccc4ccc(-c5ccccc5)nc4c3)c3c(N)nccn32)C1 [Linsitinib] (partner 1 µM)
0.693

###

- Test system: LU99A
- assay_procedure: relative viability (nuclei count vs DMSO), 5 days (fraction); higher = more cells survive
- experimental_parameters: first compound 0.03162 µM
relative viability less than 0.9 is 1; relative viability greater than or equal to 0.9 is -1.

Solved cases below.
>>> answer_label("NC(=O)Nc1cc(-c2cccc(F)c2)sc1C(=O)N[C@H]1CCCNC1 [AZD7762] + COc1cc2c(Oc3ccc(NC(=O)C4(C(=O)Nc5ccc(F)cc5)CC4)cc3F)ccnc2cc1OCCCN1CCOCC1 [Foretinib] (partner 0.25 µM)")
1
>>> answer_label("NC(=O)Nc1cc(-c2cccc(F)c2)sc1C(=O)N[C@H]1CCCNC1 [AZD7762] + O=C(CCCCCCC(=O)Nc1ccccc1)NO [Vorinostat] (partner 1 µM)")
1
>>> answer_label("NC(=O)Nc1cc(-c2cccc(F)c2)sc1C(=O)N[C@H]1CCCNC1 [AZD7762] + CC(=O)Nc1cccc(-n2c(=O)n(C3CC3)c(=O)c3c(Nc4ccc(I)cc4F)n(C)c(=O)c(C)c32)c1 [Trametinib] (partner 0.02 µM)")
1
>>> answer_label("NC(=O)Nc1cc(-c2cccc(F)c2)sc1C(=O)N[C@H]1CCCNC1 [AZD7762] + CC1(C)CCC(c2ccc(Cl)cc2)=C(CN2CCN(c3ccc(C(=O)NS(=O)(=O)c4ccc(N[C@H](CCN5CCOCC5)CSc5ccccc5)c(S(=O)(=O)C(F)(F)F)c4)cc3)CC2)C1 [Navitoclax] (partner 0.5 µM)")
1
>>> answer_label("NC(=O)Nc1cc(-c2cccc(F)c2)sc1C(=O)N[C@H]1CCCNC1 [AZD7762] + CCNC(=O)c1noc(-c2cc(C(C)C)c(O)cc2O)c1-c1ccc(CN2CCOCC2)cc1 [Luminespib] (partner 0.01 µM)")
1

Here's the next entry for you.
Record NC(=O)Nc1cc(-c2cccc(F)c2)sc1C(=O)N[C@H]1CCCNC1 [AZD7762] + CC(C)C[C@H](NC(=O)[C@H](Cc1ccccc1)NC(=O)c1cnccn1)B(O)O [Bortezomib] (partner 0.002 µM) : is its relative viability strictly below 0.9?
-1

###

- Test system: NCI-H2023
- assay_procedure: relative viability (nuclei count vs DMSO), 5 days (fraction); higher = more cells survive
- experimental_parameters: first compound 8 µM
# strict inequality: relative viability < 0.5 yields fulfilled, everything else yields not fulfilled

The examples below pair each entry with its known result.
>>> answer_label("C=C1C(=O)O[C@@H](CCCCCCCC)[C@@H]1C(=O)O [C-75] + Cc1nc(NC(=O)N2CCC[C@H]2C(N)=O)sc1-c1ccnc(C(C)(C)C(F)(F)F)c1 [Alpelisib] (partner 2 µM)")
"not fulfilled"
>>> answer_label("C=C1C(=O)O[C@@H](CCCCCCCC)[C@@H]1C(=O)O [C-75] + COc1cccc2cc(-c3nc([C@H]4CC[C@H](C(=O)O)CC4)n4ncnc(N)c34)[nH]c12 [OSI-027] (partner 0.5 µM)")
"fulfilled"
>>> answer_label("C=C1C(=O)O[C@@H](CCCCCCCC)[C@@H]1C(=O)O [C-75] + C[C@@H](Oc1cc(-c2cnn(C3CCNCC3)c2)cnc1N)c1c(Cl)ccc(F)c1Cl [Crizotinib] (partner 1 µM)")
"not fulfilled"
>>> answer_label("C=C1C(=O)O[C@@H](CCCCCCCC)[C@@H]1C(=O)O [C-75] + Cc1nc(Nc2ncc(C(=O)Nc3c(C)cccc3Cl)s2)cc(N2CCN(CCO)CC2)n1 [Dasatinib] (partner 0.075 µM)")
"fulfilled"

# ---- query molecule ----
Decide: relative viability of C=C1C(=O)O[C@@H](CCCCCCCC)[C@@H]1C(=O)O [C-75] + CC(=O)c1c(C)c2cnc(Nc3ccc(N4CCNCC4)cn3)nc2n(C2CCCC2)c1=O [Palbociclib] (partner 0.5 µM) strictly below 0.5?
fulfilled

###

- Test system: NCI-H2347
- assay_procedure: relative viability (nuclei count vs DMSO), 5 days (fraction); higher = more cells survive
- experimental_parameters: first compound 0.05 µM
# note: boundary value 0.6 maps to FALSE; relative viability below it maps to TRUE

>>> answer_label("CC1(C)CCC(c2ccc(Cl)cc2)=C(CN2CCN(c3ccc(C(=O)NS(=O)(=O)c4ccc(N[C@H](CCN5CCOCC5)CSc5ccccc5)c(S(=O)(=O)C(F)(F)F)c4)cc3)CC2)C1 [Navitoclax] + COc1cc2c(Oc3ccc(NC(=O)C4(C(=O)Nc5ccc(F)cc5)CC4)cc3F)ccnc2cc1OCCCN1CCOCC1 [Foretinib] (partner 0.25 µM)")
"FALSE"
>>> answer_label("CC1(C)CCC(c2ccc(Cl)cc2)=C(CN2CCN(c3ccc(C(=O)NS(=O)(=O)c4ccc(N[C@H](CCN5CCOCC5)CSc5ccccc5)c(S(=O)(=O)C(F)(F)F)c4)cc3)CC2)C1 [Navitoclax] + Nc1nc2[nH]cc(CCc3ccc(C(=O)N[C@@H](CCC(=O)O)C(=O)O)cc3)c2c(=O)[nH]1 [Pemetrexed] (partner 0.2 µM)")
"TRUE"
>>> answer_label("CC1(C)CCC(c2ccc(Cl)cc2)=C(CN2CCN(c3ccc(C(=O)NS(=O)(=O)c4ccc(N[C@H](CCN5CCOCC5)CSc5ccccc5)c(S(=O)(=O)C(F)(F)F)c4)cc3)CC2)C1 [Navitoclax] + CS(=O)(=O)N1CCN(Cc2cc3nc(-c4cccc5[nH]ncc45)nc(N4CCOCC4)c3s2)CC1 [Pictilisib] (partner 1 µM)")
"FALSE"
>>> answer_label("CC1(C)CCC(c2ccc(Cl)cc2)=C(CN2CCN(c3ccc(C(=O)NS(=O)(=O)c4ccc(N[C@H](CCN5CCOCC5)CSc5ccccc5)c(S(=O)(=O)C(F)(F)F)c4)cc3)CC2)C1 [Navitoclax] + Nc1ncn([C@H]2C[C@H](O)[C@@H](CO)O2)c(=O)n1 [Decitabine] (partner 2 µM)")
"TRUE"

Confirm or reject: relative viability of CC1(C)CCC(c2ccc(Cl)cc2)=C(CN2CCN(c3ccc(C(=O)NS(=O)(=O)c4ccc(N[C@H](CCN5CCOCC5)CSc5ccccc5)c(S(=O)(=O)C(F)(F)F)c4)cc3)CC2)C1 [Navitoclax] + Cc1nc(NC(=O)N2CCC[C@H]2C(N)=O)sc1-c1ccnc(C(C)(C)C(F)(F)F)c1 [Alpelisib] (partner 2 µM) lies strictly below 0.6
FALSE

Similarly, CC1(C)CCC(c2ccc(Cl)cc2)=C(CN2CCN(c3ccc(C(=O)NS(=O)(=O)c4ccc(N[C@H](CCN5CCOCC5)CSc5ccccc5)c(S(=O)(=O)C(F)(F)F)c4)cc3)CC2)C1 [Navitoclax] + C[C@@H](Oc1cc(-c2cnn(C3CCNCC3)c2)cnc1N)c1c(Cl)ccc(F)c1Cl [Crizotinib] (partner 1 µM) ?
TRUE

Item: CC1(C)CCC(c2ccc(Cl)cc2)=C(CN2CCN(c3ccc(C(=O)NS(=O)(=O)c4ccc(N[C@H](CCN5CCOCC5)CSc5ccccc5)c(S(=O)(=O)C(F)(F)F)c4)cc3)CC2)C1 [Navitoclax] + NC(=O)Nc1cc(-c2cccc(F)c2)sc1C(=O)N[C@H]1CCCNC1 [AZD7762] (partner 0.2 µM)
TRUE

Now consider CC1(C)CCC(c2ccc(Cl)cc2)=C(CN2CCN(c3ccc(C(=O)NS(=O)(=O)c4ccc(N[C@H](CCN5CCOCC5)CSc5ccccc5)c(S(=O)(=O)C(F)(F)F)c4)cc3)CC2)C1 [Navitoclax] + O=C(c1cc(Cc2n[nH]c(=O)c3ccccc23)ccc1F)N1CCN(C(=O)C2CC2)CC1 [Olaparib] (partner 8 µM) and answer again.
TRUE
